The origin of these recorded values is ChEMBL document CHEMBL3817754.

# system-name: Cholinesterase (Equus caballus, UniProt P81908)
# Sequence (P81908 whole entry): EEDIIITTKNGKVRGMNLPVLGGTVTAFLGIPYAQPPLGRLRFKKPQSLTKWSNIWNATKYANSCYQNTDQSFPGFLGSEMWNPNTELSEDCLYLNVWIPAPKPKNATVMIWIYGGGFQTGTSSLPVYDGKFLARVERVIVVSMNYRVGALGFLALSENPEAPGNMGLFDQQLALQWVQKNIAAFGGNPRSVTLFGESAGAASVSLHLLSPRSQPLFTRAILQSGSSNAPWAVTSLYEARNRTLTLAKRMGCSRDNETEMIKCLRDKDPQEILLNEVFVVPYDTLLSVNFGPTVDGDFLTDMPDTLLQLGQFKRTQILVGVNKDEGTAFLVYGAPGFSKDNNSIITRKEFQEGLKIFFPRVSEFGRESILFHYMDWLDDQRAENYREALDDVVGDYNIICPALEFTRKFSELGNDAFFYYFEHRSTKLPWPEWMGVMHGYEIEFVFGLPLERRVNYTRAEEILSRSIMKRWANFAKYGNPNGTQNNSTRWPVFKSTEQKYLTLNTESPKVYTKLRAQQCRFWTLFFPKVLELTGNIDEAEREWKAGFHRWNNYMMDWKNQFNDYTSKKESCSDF
# protocol-description: Inhibition of equine serum butyrylcholinesterase preincubated for 5 mins followed by addition of S-butyrylthiocholine iodide as substrate measured after 60 to 120 mins by Ellmans method
pIC50: −log10 of the molar value.
Rule: pIC50 under 6 gives Not fulfilled, otherwise Fulfilled.

# input Hi, just wondering whether O=C(/C=C/c1ccc(Cl)cc1)NC1CCN(Cc2ccccc2)CC1 shows pIC50 of 6 or higher.
# output Not fulfilled

# input Hi, just wondering whether O=C(/C=C/c1ccc(F)cc1)NC1CCN(Cc2ccccc2)CC1 shows pIC50 of 6 or higher.
# output Not fulfilled

# input Hi, just wondering whether O=C(/C=C/c1ccc(O)c(O)c1)NCCC1CCN(Cc2ccccc2)CC1 shows pIC50 of 6 or higher.
# output Not fulfilled

Others:
# input Hi, just wondering whether COc1cccc(/C=C/C(=O)NCCC2CCN(Cc3ccccc3)CC2)c1 shows pIC50 of 6 or higher.
# output Fulfilled

# input Hi, just wondering whether O=C(/C=C/c1ccc([N+](=O)[O-])cc1)NC1CCN(Cc2ccccc2)CC1 shows pIC50 of 6 or higher.
# output Not fulfilled

# input Hi, just wondering whether COc1cc(CCC(=O)NCCC2CCN(Cc3ccccc3)CC2)ccc1O shows pIC50 of 6 or higher.
# output Not fulfilled

# input Hi, just wondering whether COc1cc(/C=C/C(=O)NC2CCN(Cc3ccccc3)CC2)cc(OC)c1O shows pIC50 of 6 or higher.
# output Not fulfilled

# input Hi, just wondering whether COc1ccc(/C=C/C(=O)NCCC2CCN(Cc3ccccc3)CC2)cc1OC shows pIC50 of 6 or higher.
# output Not fulfilled

# input Hi, just wondering whether O=C(/C=C/c1ccccc1)NCCC1CCN(Cc2ccccc2)CC1 shows pIC50 of 6 or higher.
# output Fulfilled

# input Hi, just wondering whether COc1ccc(/C=C/C(=O)NCCC2CCN(Cc3ccccc3)CC2)cc1O shows pIC50 of 6 or higher.
# output Not fulfilled

# input Hi, just wondering whether O=C(/C=C/c1ccc([N+](=O)[O-])cc1)NCCC1CCN(Cc2ccccc2)CC1 shows pIC50 of 6 or higher.
# output Not fulfilled

# input Hi, just wondering whether COc1cc(CCC(=O)NC2CCN(Cc3ccccc3)CC2)ccc1O shows pIC50 of 6 or higher.
# output Not fulfilled
